Cited source for all entries: patent US10905654B2

Target: COX-1 (Homo sapiens, UniProt P23219)
Sequence (P23219 24-599): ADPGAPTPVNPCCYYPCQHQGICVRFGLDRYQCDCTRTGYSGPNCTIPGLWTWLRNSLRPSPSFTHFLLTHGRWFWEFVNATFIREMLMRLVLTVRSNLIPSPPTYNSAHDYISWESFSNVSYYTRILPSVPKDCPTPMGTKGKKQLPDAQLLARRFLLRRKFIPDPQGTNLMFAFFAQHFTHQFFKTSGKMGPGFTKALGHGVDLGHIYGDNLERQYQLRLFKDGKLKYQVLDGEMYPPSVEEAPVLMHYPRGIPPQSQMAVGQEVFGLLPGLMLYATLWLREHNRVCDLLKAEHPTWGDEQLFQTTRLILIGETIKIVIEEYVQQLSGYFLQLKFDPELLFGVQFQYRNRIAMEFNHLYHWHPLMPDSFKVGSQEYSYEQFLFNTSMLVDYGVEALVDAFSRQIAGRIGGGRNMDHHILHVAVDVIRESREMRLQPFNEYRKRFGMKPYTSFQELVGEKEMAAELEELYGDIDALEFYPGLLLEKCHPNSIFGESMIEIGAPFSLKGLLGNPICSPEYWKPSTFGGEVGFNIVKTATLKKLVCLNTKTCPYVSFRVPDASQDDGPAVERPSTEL
measured-metric: IC50 (µM)
Response body: numeric value in µM, unit text excluded.

Req: Item "C=C[C@@](C)(/C=C/c1ccc(O)cc1)CCC=C(C)C" has what recorded IC50?
Resp: 2.34

---

Target: human 5-lipoxygenase (5-LO or 5-LOX) (Homo sapiens)
Construct: 5-LOX was isolated from human PBML cells; endogenous in cells
Sequence (P09917 whole entry): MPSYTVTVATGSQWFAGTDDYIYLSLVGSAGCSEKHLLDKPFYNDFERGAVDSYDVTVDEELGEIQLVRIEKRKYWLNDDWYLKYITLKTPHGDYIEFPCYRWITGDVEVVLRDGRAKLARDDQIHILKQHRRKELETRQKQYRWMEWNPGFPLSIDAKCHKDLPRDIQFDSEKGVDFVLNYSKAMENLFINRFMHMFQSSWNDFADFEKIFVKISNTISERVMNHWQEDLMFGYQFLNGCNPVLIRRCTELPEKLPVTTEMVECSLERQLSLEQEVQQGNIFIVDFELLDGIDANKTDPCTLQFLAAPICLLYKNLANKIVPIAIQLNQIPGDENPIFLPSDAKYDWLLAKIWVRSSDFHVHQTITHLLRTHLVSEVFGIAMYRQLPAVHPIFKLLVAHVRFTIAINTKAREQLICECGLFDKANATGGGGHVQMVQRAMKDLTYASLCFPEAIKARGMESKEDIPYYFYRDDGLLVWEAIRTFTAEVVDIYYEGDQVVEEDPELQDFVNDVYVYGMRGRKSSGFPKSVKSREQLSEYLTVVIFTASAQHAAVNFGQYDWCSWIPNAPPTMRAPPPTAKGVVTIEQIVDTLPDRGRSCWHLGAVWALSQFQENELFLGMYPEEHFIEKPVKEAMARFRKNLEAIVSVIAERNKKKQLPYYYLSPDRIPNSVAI
Assay: Lipoxygenase Inhibition Assay (LTB4 formation, EIA)
Conditions: 99% bakuchiol; 5-LOX from human PBML cells, arachidonic acid substrate
measured-metric: IC50 (µM)
Response body: numeric value in µM, unit text excluded.

Req: Item "C=C[C@@](C)(/C=C/c1ccc(O)cc1)CCC=C(C)C" has what recorded IC50?
Resp: 3.41
